species on record: Ovis aries; experiment: Inhibition of sheep brain dynamin 1 at 100 uM by malachite green GTPase assay
The compounds listed here are annotated with their inhibition.
readoutKind: inhibition

| smilesText | result |
| --- | --- |
| N=c1oc2c(O)cccc2cc1C(=O)NCCCCCCNC(=O)c1cc2cccc(O)c2oc1=N | < 50% |
| N=c1oc2ccccc2cc1C(=O)NCCCCNC(=O)c1cc2ccccc2oc1=N | < 50% |
| N=c1oc2ccccc2cc1C(=O)NCCNC(=O)c1cc2ccccc2oc1=N | < 50% |
| N=c1oc2cc(O)ccc2cc1C(=O)NCCCCNC(=O)c1cc2ccc(O)cc2oc1=N | < 50% |
| N=c1oc2c(O)cccc2cc1C(=O)NCCCCCNC(=O)c1cc2cccc(O)c2oc1=N | < 50% |
| N=c1oc2ccccc2cc1C(=O)NCCCCCCNC(=O)c1cc2ccccc2oc1=N | < 50% |
| N=c1oc2cc(O)ccc2cc1C(=O)NCCCCCNC(=O)c1cc2ccc(O)cc2oc1=N | < 50% |

* * *

test: Inhibition of sheep brain dynamin 1 by malachite green GTPase assay; set-up: species or system Ovis aries
The compounds listed here are annotated with their log10 of IC50.
readoutKind: log10 of IC50 (log10 of the value in µM)

| smilesText | log10 of IC50 |
| --- | --- |
| N=c1oc2c(O)c(O)ccc2cc1C(=O)NCCNC(=O)c1cc2ccc(O)c(O)c2oc1=N | -0.48 |
| N#C/C(=C\c1ccc(N=[N+]=[N-])cc1)C(=O)NCCCNC(=O)/C(C#N)=C/c1ccc(O)c(O)c1 | 0.81 |
| N=c1oc2cc(O)c(O)cc2cc1C(=O)NCCCCCNC(=O)c1cc2cc(O)c(O)cc2oc1=N | 1.23 |
| N=c1oc2cc(O)c(O)cc2cc1C(=O)NCCCCCCNC(=O)c1cc2cc(O)c(O)cc2oc1=N | 1.91 |
| N=c1oc2cc(O)c(O)cc2cc1C(=O)NCCCNC(=O)c1cc2cc(O)c(O)cc2oc1=N | -0.59 |
| N=c1oc2cc(O)c(O)cc2cc1C(=O)NCCCCNC(=O)c1cc2cc(O)c(O)cc2oc1=N | 0.51 |
| N#C/C(=C\c1ccccc1)C(=O)NCCCNC(=O)/C(C#N)=C/c1ccc(O)c(O)c1 | 2.16 |
